- Test system: Clinical Isolates
- measurement_protocol: Reversal of Multi-Drug Resistance (MIC/FIC of antibiotics combined with compound 1)
- Type: cell-based, Staphylococcus aureus
- test_parameters: Staphylococcus aureus, antibiotic alone, read-out: MIC (a)
- Experimental: Assay Protocol: Protocol of Chung et al, (2001), with slight modifications, was followed. 5×10 MDR S. aureus cells were treated with 20 μg/mL of test compounds and incubated for 20 hours. […] Fractional inhibitory concentrations were calculated by the above cited formulae. • FIC of Antibiotic a (FICa)=MIC of Antibiotic a in combination/MIC of antibiotic a alone • FIC of Compound b (FICb)=MIC of Compound b in combination/MIC of compound b alone […]
value_type: MIC (µg/mL)
A number alone suffices; assume µg/mL.

Record lookup: for Clinical Isolates, what MIC belongs to "Cc1cc(NS(=O)(=O)c2ccc(N)cc2)no1" ?
2050

Record lookup: for Clinical Isolates, what MIC belongs to "[H]/N=C(/N)N[C@H]1[C@H](O)[C@@H](O)[C@H](O[C@@H]2O[C@@H](C)[C@](O)(C=O)[C@H]2O[C@@H]2O[C@@H](CO)[C@H](O)[C@@H](O)[C@@H]2NC)[C@@H](N/C(N)=N\[H])[C@@H]1O" ?
2050

Record lookup: for Clinical Isolates, what MIC belongs to "O=C(N[C@H](CO)[C@H](O)c1ccc([N+](=O)[O-])cc1)C(Cl)Cl" ?
1020
